GluR pEC 50 values, listed per item
Biological target: human glucagon receptor (GCGR) (human, UniProt P47871 26-477)
Assay: cell-based or functional assay
Where no end group is shown, it is not given here. [ ]: non-standard residue; d: D form. Formula III = not defined here; Aib = CC(C)(N)C(=O)O
Use pEC50 as the unit, but write only the number.

The examples below pair each entry with its known result.
Qu. Specify reported GluR pEC 50 for the binder shown: YSQGTFTSDYSKYLDK(Formula III)ARAQEFVKWLEDEPKSKSPPPS-NH2 (reading uncertain) [Compound B39]
Ans. 10.9

Qu. Specify reported GluR pEC 50 for the binder shown: YSHGTFTSDK(Formula III)SKYLDSARAQEFVKWLEDEPSSGAPPPS-NH2 (reading uncertain) [Compound B48]
Ans. 9.2

Qu. Specify reported GluR pEC 50 for the binder shown: YSQGTFTSDK(Formula III)SKYLDAARAQEFVKWLEDEPKSKSPPPS-NH2 (reading uncertain) [Compound B40]
Ans. 11.9

Qu. Specify reported GluR pEC 50 for the binder shown: YSHGTFTSDYSKYLDK(Formula III)KYAQEFV[Aib]WLEDEPSSGAPPPS-OH (reading uncertain) [Compound B7]
Ans. 8.6

We next turn to a different binder, shown below.
Qu. Specify reported GluR pEC 50 for the binder shown: YSHGTFTSDYSKYLD[Aib]KRAQK(Formula III)FVIWLEDEPSSGAPPPS-OH (reading uncertain) [Compound B30]
Ans. 9.7
